src = patent EP2719375A1

- Target system: Smo (Drosophila melanogaster, UniProt P91682)
- Construct: from tissue; host or cells: explanted wing imaginal discs from wild type and LppRNAi Drosophila larvae
- Sequence (P91682 32-1036): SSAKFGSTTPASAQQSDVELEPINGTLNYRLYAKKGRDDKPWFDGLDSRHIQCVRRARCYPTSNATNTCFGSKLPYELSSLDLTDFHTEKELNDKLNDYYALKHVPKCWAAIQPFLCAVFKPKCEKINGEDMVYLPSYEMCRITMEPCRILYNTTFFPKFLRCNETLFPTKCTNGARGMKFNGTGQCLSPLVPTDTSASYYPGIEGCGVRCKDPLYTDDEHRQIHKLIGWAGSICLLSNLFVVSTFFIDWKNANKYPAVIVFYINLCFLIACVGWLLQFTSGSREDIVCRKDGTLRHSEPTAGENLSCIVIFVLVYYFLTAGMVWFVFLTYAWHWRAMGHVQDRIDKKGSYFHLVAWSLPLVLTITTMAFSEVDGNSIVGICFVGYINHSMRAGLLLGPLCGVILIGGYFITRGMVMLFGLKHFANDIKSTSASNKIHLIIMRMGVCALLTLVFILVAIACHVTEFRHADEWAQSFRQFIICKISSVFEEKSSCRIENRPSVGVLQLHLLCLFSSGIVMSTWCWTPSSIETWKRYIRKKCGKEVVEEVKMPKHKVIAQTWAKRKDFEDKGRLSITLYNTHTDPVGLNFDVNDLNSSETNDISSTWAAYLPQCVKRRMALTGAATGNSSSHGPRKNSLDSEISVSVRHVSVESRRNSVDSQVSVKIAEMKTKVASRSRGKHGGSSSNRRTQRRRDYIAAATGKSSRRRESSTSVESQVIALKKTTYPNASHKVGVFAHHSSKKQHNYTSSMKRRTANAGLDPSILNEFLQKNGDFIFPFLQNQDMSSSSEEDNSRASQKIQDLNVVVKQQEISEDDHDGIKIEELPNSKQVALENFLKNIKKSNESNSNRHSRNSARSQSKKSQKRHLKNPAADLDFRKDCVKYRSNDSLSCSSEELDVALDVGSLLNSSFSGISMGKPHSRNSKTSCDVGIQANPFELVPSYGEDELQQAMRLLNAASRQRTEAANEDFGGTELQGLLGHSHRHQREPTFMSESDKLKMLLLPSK
- Method: Drosophila wing disc assay, Smo staining
- Assay setup: LppRNAi wing discs, DOPC liposomes, 2 hours
- Experimental: Imaginal discs were fixed and stained as previously described (Marois et al., 2006). […] All quantified immunostaining was performed on discs that were dissected, fixed, stained and imaged in parallel using the same microscope settings. To quantify Ci155 and Smo staining intensities, three apical sections 0.7 µm apart were projected using maximal intensity in ImageJ. […] Average pixel intensity was determined as a function of distance from A/P boundary using PlotProfile and plotted using Microsoft Excel. […]
Reported property: ectopic Smo accumulation / stabilization

Sample records with ectopic Smo accumulation / stabilization:
{"Compound": "CCCCCCCCCCCCCCCC(=O)NCCc1ccc(O)c(O)c1", "ectopic Smo accumulation / stabilization": "no activity"}
{"Compound": "CCCCCCCC/C=C\\CCCCCCCC(=O)NCCO [N-acylethanolamide (18:1)]", "ectopic Smo accumulation / stabilization": "not decreased"}
{"Compound": "CCCCCCCCCCCCCCCCCC(=O)NCCO [N-acylethanolamide (18:0)]", "ectopic Smo accumulation / stabilization": "not decreased"}
{"Compound": "CCCCCCCCCCCCCCCC(=O)NC(CO)C(=O)O (centres unmarked)", "ectopic Smo accumulation / stabilization": "no activity"}
{"Compound": "CCCCC/C=C\\C/C=C\\C/C=C\\C/C=C\\CCCC(=O)NCCO [N-acylethanolamide (20:4), arachidonyl ethanolamide]", "ectopic Smo accumulation / stabilization": "not decreased"}

We next turn to a different compound, shown below.
The compound CCCCC/C=C\C/C=C\C/C=C\C/C=C\CCCCOC(CO)CO showed ectopic Smo accumulation / stabilization equal to no activity
